Target: human cloned somatostatin receptor 2 (human) (UniProt P30874)
Sequence (P30874 whole entry): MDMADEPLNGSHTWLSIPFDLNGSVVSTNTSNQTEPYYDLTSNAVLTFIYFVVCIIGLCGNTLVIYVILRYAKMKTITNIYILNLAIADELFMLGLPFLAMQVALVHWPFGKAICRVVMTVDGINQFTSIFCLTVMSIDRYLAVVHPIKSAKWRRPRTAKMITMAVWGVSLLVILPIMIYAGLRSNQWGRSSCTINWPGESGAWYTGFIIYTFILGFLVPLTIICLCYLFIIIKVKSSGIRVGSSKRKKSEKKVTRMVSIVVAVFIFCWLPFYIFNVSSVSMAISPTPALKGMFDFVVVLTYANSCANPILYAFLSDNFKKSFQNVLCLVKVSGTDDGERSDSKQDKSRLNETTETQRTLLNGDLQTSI
Experiment: 125I-Tyr11-SRIF-14 displacement
*1 amine or outer side, *2 acyl side, *3 side chain or, on linkers, in order; H or OH if unused. Bridges are numbered along the chain shown (N, C = ends). [ ]: non-standard residue; d: D form. The star is where a group is joined. DOTA = O=C(O)CN1CCN(CC(=O)O)CCN(CC(=O)*)CCN(CC(=O)O)CC1; N(2-mercaptoethyl)Gly = O=C(CN(CCS[*:3])[*:1])[*:2]
parameter: pKi
pKi (log units): -log10 of the concentration in mol/L.

Examples with answers:
{DOTA}-[dF]RCF[dW]KTF[N(2-mercaptoethyl)Gly]-NH2 (disulfide 3-9; also: Cu complex of DOTA) [SEQ ID NO: 5]
6.66
{DOTA}-[dF]RCF[dW]KTF[N(2-mercaptoethyl)Gly]-NH2 (disulfide 3-9; also: Lu complex of DOTA) [SEQ ID NO: 6]
6.96

What value of pKi has been reported for the following binder? H-[dF]RCF[dW]KTF[N(2-mercaptoethyl)Gly]-NH2 (disulfide 3-9; SMILES C[C@@H](O)[C@@H]1NC(=O)[C@H](CCCCN)NC(=O)[C@@H](Cc2c[nH]c3ccccc23)NC(=O)[C@H](Cc2ccccc2)NC(=O)[C@@H](NC(=O)[C@H](CCCNC(=N)N)NC(=O)[C@H](N)Cc2ccccc2)CSSCCN(CC(N)=O)C(=O)[C@H](Cc2ccccc2)NC1=O) [SEQ ID NO: 1]
6.49

# input binder: {DOTA}-[dF]RCF[dW]KTF[N(2-mercaptoethyl)Gly]-NH2 (disulfide 3-9; also: Ga complex of DOTA) [SEQ ID NO: 4] ; wanted: its pKi
7.52
